# key: entry, value: bioavailability
- experimental.details: Oral bioavailability in Wistar rat at 10 mg/kg
- Format: ADME, organism-based
- assay.conditions: in vivo
recorded.metric: bioavailability (%)

[[record]]
molecular_string = "C[C@H](Nc1nc(Nc2cn(C)cn2)c2cnn(C)c2n1)c1ncc(F)cn1"
observed_measurement = 90

[[record]]
molecular_string = "C[C@H](Nc1nc(Nc2cn(C)cn2)c2cc[nH]c2n1)c1ncc(F)cn1"
observed_measurement = 64


----------
- target.or.test.system: UniProt:P07949
- Sequence (P07949 whole entry): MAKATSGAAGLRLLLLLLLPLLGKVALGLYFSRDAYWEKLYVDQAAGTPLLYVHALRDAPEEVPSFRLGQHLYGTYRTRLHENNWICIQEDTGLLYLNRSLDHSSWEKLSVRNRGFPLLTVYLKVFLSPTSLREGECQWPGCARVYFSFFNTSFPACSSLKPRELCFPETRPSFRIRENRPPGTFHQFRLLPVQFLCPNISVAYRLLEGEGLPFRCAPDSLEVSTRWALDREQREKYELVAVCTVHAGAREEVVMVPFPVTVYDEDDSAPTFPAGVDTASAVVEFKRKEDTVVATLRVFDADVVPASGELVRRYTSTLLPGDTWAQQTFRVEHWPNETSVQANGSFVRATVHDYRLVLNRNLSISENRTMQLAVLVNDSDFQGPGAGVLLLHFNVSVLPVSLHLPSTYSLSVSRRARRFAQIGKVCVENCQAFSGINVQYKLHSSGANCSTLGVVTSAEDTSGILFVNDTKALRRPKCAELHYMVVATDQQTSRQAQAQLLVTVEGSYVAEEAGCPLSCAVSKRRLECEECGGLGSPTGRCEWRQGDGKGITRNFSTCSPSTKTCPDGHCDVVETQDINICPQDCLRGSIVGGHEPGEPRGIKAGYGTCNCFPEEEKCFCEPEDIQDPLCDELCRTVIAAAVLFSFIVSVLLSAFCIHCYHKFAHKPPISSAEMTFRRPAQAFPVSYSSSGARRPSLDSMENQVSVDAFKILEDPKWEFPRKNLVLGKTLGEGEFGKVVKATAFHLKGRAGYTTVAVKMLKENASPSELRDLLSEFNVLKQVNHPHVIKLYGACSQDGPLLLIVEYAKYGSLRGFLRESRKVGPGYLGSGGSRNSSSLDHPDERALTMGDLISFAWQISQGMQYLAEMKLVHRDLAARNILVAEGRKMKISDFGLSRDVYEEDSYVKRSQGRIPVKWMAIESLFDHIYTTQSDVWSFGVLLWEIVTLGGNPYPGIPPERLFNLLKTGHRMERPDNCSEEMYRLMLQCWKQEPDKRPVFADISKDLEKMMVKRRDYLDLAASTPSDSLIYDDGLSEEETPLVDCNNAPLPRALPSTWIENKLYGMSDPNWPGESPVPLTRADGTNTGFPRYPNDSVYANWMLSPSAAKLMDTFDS
- experimental.details: Inhibition of human Ret
pIC50: −log10 of the molar value.
recorded.metric: pIC50

[[record]]
molecular_string = "C[C@H](Nc1nc(Nc2cn(C)cn2)c2cc[nH]c2n1)c1ncc(F)cn1"
observed_measurement = 7.34


----------
We begin with a simple list: items and their reported pIC50.
- target.or.test.system: UniProt P52333
- Sequence (P52333 whole entry): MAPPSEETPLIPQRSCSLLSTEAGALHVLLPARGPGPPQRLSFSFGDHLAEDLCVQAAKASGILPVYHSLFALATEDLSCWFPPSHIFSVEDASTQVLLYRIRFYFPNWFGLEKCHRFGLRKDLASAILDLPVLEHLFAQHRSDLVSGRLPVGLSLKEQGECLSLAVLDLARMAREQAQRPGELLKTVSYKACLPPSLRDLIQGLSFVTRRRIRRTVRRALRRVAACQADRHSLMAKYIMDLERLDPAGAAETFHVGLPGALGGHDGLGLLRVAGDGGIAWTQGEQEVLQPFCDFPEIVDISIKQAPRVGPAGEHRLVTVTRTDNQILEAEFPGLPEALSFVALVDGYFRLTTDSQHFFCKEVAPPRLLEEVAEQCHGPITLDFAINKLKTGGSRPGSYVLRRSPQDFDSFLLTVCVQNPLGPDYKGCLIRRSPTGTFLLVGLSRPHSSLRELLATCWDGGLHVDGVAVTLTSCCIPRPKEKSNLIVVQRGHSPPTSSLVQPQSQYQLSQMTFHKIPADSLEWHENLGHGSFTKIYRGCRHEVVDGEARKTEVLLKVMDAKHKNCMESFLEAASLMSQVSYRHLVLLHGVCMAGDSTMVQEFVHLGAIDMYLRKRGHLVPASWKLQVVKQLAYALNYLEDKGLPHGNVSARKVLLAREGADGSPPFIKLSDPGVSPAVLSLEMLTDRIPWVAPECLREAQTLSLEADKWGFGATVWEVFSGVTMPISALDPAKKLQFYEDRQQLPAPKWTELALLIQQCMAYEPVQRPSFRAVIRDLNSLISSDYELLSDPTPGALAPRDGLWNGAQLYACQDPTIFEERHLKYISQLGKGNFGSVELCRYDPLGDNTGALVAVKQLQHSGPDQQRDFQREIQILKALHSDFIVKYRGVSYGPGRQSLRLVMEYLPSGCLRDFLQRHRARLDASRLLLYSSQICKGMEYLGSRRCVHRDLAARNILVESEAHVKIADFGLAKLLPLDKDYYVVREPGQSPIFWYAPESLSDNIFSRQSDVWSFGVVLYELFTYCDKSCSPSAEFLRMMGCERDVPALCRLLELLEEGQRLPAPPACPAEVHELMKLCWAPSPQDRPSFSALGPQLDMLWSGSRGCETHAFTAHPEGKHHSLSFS
- experimental.details: Inhibition of Jak3 (unknown origin)
pIC50: −log10 of the molar value.
recorded.metric: pIC50

[[record]]
compound = "C[C@H](Nc1nc(Nc2cn(C)cn2)c2nccnc2n1)c1ncc(F)cn1"
target_or_test_system = "UniProt P52333"
observed_measurement = "< 4.52"

[[record]]
compound = "COc1ccc2nc(NC(C)c3ncc(F)cn3)nc(Nc3cn(C)cn3)c2c1 (racemic)"
target_or_test_system = "UniProt P52333"
observed_measurement = "< 4.52"

[[record]]
compound = "CC(Nc1nc(Nc2cn(C)cn2)c2ccc(Cl)nc2n1)c1ncc(F)cn1 (racemic)"
target_or_test_system = "UniProt P52333"
observed_measurement = "< 4.52"


Data origin, for the record: ChEMBL document CHEMBL3112447
